Source listed as the supplement of paper PMC10037445.

- System: RAW-Dual
- measurementNotes: NF-kB SEAP reporter activity, fold change vs agonist alone; cytotoxicity flag (confluency mask): not cytotoxic; higher = enhanced NF-kB activity
- condition: agonist: Pam2CSK4 (TLR2/6) 0.1 ug/mL
Over roughly 2,900 compounds, “NF-kB SEAP reporter activity, fold change vs agonist alone” has its median near 0.99; the highest 2% begin near 2.6. This excerpt belongs to a sample that is enriched for the highest values.
measuredQuantity: NF-kB SEAP reporter activity
I'd appreciate a reply containing only the number, no unit.

Some solved entries appear below for comparison.
[
  {
    "compound": "Nc1ccn(CC(CO)OCP(=O)(O)O)c(=O)n1 (stereo not given) (library stock concentration (final ~1000-fold dilution): 10 mM water)",
    "NF-kB SEAP reporter activity": 1.32
  },
  {
    "compound": "CN(C)CCOc1ccc(-c2nc(-c3ccncc3)c(-c3ccc4c(c3)CC/C4=N\\O)[nH]2)cc1 (library stock concentration (final ~1000-fold dilution): 10 mM)",
    "NF-kB SEAP reporter activity": 1.49
  },
  {
    "compound": "O=c1cc(N2CCOCC2)oc2c1ccc1ccccc12 (library stock concentration (final ~1000-fold dilution): 2 mM)",
    "NF-kB SEAP reporter activity": 0.982
  },
  {
    "compound": "CCOC(=O)c1ccc(NC2CCCCC2)c(N)c1 (library stock concentration (final ~1000-fold dilution): 10 mM)",
    "NF-kB SEAP reporter activity": 0.963
  },
  {
    "compound": "Cn1nc(C(C)(C)C)cc1C(=O)NC(Cc1cccc(Cl)c1)C(=O)NCC#N (stereo not given) (library stock concentration (final ~1000-fold dilution): 10 mM)",
    "NF-kB SEAP reporter activity": 0.947
  },
  {
    "compound": "Nc1ccccc1NC(=O)c1ccc(CNC(=O)OCc2cccnc2)cc1 (library stock concentration (final ~1000-fold dilution): 10 mM)",
    "NF-kB SEAP reporter activity": 1.07
  },
  {
    "compound": "CCOc1ccc(Cc2cc(C3OC(CO)C(O)C(O)C3O)ccc2Cl)cc1 (stereo not given) (library stock concentration (final ~1000-fold dilution): 10 mM)",
    "NF-kB SEAP reporter activity": 1.01
  },
  {
    "compound": "COc1cc(OC)cc(-c2cc3cnc(N)nc3nc2NC(=O)NC(C)(C)C)c1 (library stock concentration (final ~1000-fold dilution): 10 mM)",
    "NF-kB SEAP reporter activity": 0.578
  },
  {
    "compound": "CCCC1CC(C(=O)NC(C(C)Cl)C2OC(SC)C(O)C(O)C2O)N(C)C1.Cl.O (stereo not given) (library stock concentration (final ~1000-fold dilution): 10 mM)",
    "NF-kB SEAP reporter activity": 0.831
  },
  {
    "compound": "CNc1ncc2cc(-c3cc(NC(=O)NCCC(C)(C)C)c(F)cc3C)c(C)nc2n1 (library stock concentration (final ~1000-fold dilution): 2 mM)",
    "NF-kB SEAP reporter activity": 0.218
  }
]

# query: NF-kB SEAP reporter activity | item CCn1cc(C(=O)O)c(=O)c2c(N)c(F)c(NC3CCCCC3)cc21 (library stock concentration (final ~1000-fold dilution): 10 mM) | system: RAW-Dual
1.85

# query: NF-kB SEAP reporter activity | item O=c1cc(N2CCOCC2)oc2c(-c3cccc4c3sc3ccccc34)cccc12 (library stock concentration (final ~1000-fold dilution): 2 mM) | system: RAW-Dual
1.05

# query: NF-kB SEAP reporter activity | item Fc1ccc2[nH]ccc2c1-c1nc(N2CCOCC2)c2sc(CN3CCN(CC4CC4)CC3)cc2n1 (library stock concentration (final ~1000-fold dilution): 10 mM) | system: RAW-Dual
1.03

# query: NF-kB SEAP reporter activity | item CCC1OC(=O)C(C)C(OC2CC(C)(OC)C(O)C(C)O2)C(C)C(OC2OC(C)CC(N(C)C)C2O)C(C)(O)CC(C)C(=O)C(C)C(O)C1(C)O.N#CS (stereo not given) (library stock concentration (final ~1000-fold dilution): 10 mM) | system: RAW-Dual
1.07

# query: NF-kB SEAP reporter activity | item Cc1ccc(NC(=O)c2ccc(CN3CCN(C)CC3)cc2)cc1Nc1nccc(-c2cccnc2)n1 (library stock concentration (final ~1000-fold dilution): 10 mM) | system: RAW-Dual
1.55
